- Tested on: Escherichia coli TOP10;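 note: peptides expressed intracellularly from a pBAD plasmid library in pooled LB shake-flask culture, induced with 0.3% L-arabinose, DNA abundance read by NGS, three biological replicates, DESeq2 with apeglm shrinkage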
- test protocol: shrunken log2 fold change of peptide-encoding DNA abundance (4.5 h post-induction vs induction); higher = less antimicrobial activity (less host growth inhibition)
- condition set: time post-induction: 4.5 h; library: site-saturation at positions 5, 18, 19, 20
Answer not met if shrunken log2 fold change is under -0.1, and met if it is -0.1 or more.

Some entries whose results are on file:
RRIRQRPPRLPRPRPRPVWHPRP; met
RRIRIRPPRLPRPRPRPHHRPRP; not met
RRIRPRPPRLPRPRPRPWLNPRP; not met
RRIRYRPPRLPRPRPRPTSWPRP; not met

Reported shrunken log2 fold change reaches at least -0.1 for RRIRCRPPRLPRPRPRPWMQPRP ? met

Check the entry RRIRRRPPRLPRPRPRPQFNPRP : does shrunken log2 fold change equal or exceed -0.1? not met

Can RRIRMRPPRLPRPRPRPSTMPRP be said to have shrunken log2 fold change at or above -0.1? not met

Given RRIRERPPRLPRPRPRPLPWPRP , state whether its shrunken log2 fold change is at least -0.1. met

Is it the case that RRIRYRPPRLPRPRPRPKRVPRP has shrunken log2 fold change reaching or exceeding -0.1? met

Could you please find out whether RRIRERPPRLPRPRPRPGKGPRP has shrunken log2 fold change that meets -0.1 or exceeds it? met

Determine whether measured shrunken log2 fold change meets or exceeds -0.1 for RRIRSRPPRLPRPRPRPRTDPRP met

Would you say RRIRVRPPRLPRPRPRPMEPPRP shows shrunken log2 fold change at minimum -0.1? met

Determine whether this sequence has shrunken log2 fold change no lower than -0.1: RRIRARPPRLPRPRPRPCMMPRP met
